STUDY_TARGET: T1, AFP158/HLA-A*02:01 complex (human)
T1 construct: flowed over the chip in SPR; also called AFP158 pro
EXPERIMENT_SUMMARY: SPR, scFv captured, pMHC in flow;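 further: complex injected at several concentrations over crude scFv, association then running-buffer dissociation, KD estimated from kinetic on- and off-rate constants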
ASSAY_ENDPOINT: Kd (nM)
Answers are plain numbers, in nM.

Here's what some known entries look like.
INSERT INTO measurements (binder, unit_text, reported_result) VALUES
  ('HD102E (scFv, AS170036 VL1VH1 scFv mutein) scFv: QSALTQPRSVSGSPGQSVTISCAGTSSDVGSENYVSWYQQHPGKAPKLMIYQVNKRASGVPDRFSGSKSGNTASLTISGLQAEDEADYYCASYRSSDHNIVFGGGTKLTVLGGGGSGGGGSGGGGSEVQLVESGGGLVQPGGSLRLSCAASGFTFSSYAMSWVRQAPGKGLEWVSTINSGTGSPYYADSVKGRFTISRDNSKNTLYLQMNSLRAEDTAVYYCAKNFFEGSWFLGPPAMDYWGQGTLVTVSSHHHHHH', 'nM', 190),
  ('HS57R (scFv, AS170036 VL1VH1 scFv mutein; also called AS170036 VL1VH1-VHS57R) scFv: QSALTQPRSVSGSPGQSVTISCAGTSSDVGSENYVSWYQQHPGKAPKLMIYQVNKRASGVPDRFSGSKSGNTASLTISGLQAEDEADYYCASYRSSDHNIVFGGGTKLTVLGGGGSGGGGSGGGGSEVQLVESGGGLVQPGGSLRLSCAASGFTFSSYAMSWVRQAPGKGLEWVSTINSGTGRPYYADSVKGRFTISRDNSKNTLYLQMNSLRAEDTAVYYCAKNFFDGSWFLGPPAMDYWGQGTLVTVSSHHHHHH', 'nM', 88);

Asked: Please report the recorded Kd for HS57K (scFv, AS170036 VL1VH1 scFv mutein; also called AS170036 VL1VH1-VHS57K) scFv: QSALTQPRSVSGSPGQSVTISCAGTSSDVGSENYVSWYQQHPGKAPKLMIYQVNKRASGVPDRFSGSKSGNTASLTISGLQAEDEADYYCASYRSSDHNIVFGGGTKLTVLGGGGSGGGGSGGGGSEVQLVESGGGLVQPGGSLRLSCAASGFTFSSYAMSWVRQAPGKGLEWVSTINSGTGKPYYADSVKGRFTISRDNSKNTLYLQMNSLRAEDTAVYYCAKNFFDGSWFLGPPAMDYWGQGTLVTVSSHHHHHH .
Given back: 56

Reference source: patent US20240279318A1
